Here, each record is paired with measured kinase still bound, per cent of control data.
SYSTEM NAME: LIMK1 (human) (UniProt P53667)
Sequence (P53667 whole entry, looked up): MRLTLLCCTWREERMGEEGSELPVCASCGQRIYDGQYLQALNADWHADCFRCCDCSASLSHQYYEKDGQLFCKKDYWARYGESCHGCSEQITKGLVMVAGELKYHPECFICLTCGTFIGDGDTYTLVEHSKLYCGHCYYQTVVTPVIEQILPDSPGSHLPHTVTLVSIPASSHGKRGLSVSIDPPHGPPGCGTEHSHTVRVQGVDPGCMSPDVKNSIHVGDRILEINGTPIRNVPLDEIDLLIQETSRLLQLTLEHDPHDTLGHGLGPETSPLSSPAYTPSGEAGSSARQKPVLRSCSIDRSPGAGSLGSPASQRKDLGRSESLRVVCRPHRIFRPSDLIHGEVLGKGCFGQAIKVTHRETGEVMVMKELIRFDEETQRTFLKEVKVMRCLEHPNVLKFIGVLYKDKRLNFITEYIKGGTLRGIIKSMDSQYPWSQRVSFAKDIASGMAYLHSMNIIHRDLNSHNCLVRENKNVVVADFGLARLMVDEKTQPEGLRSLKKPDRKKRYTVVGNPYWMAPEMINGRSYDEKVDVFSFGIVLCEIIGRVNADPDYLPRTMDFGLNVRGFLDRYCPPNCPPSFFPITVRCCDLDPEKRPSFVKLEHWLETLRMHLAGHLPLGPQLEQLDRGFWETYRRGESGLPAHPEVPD
ASSAY NAME: KINOMEscan competition binding
STUDY CONDITIONS: compound 10.0 µM

CHEMICAL STRUCTURE | UNIT DESCRIPTOR | kinase still bound, per cent of control
COc1cc2ncn(-c3cc(OCc4ccccc4C(F)(F)F)c(C(N)=O)s3)c2cc1OC | % | 79
COCC(=O)NC/C=C/c1ccc2ncnc(Nc3ccc(Oc4ccc(C)nc4)c(C)c3)c2c1 | % | 93
O=c1cc(N2CCOCC2)oc2c(-c3cccc4c3sc3ccccc34)cccc12 | % | 100
CCN(CC)CCCCNc1ncc2c(n1)N(C)C(=O)N(c1c(Cl)c(OC)cc(OC)c1Cl)C2 | % | 100
CCN1CCN(C(=O)Cc2ccc(Nc3ncc(F)c(Nc4ccc(C(=O)Nc5ccccc5Cl)cc4)n3)cc2)CC1 | % | 9.8
Cc1n[nH]c2ccc(-c3cncc(OC[C@@H](N)Cc4c[nH]c5ccccc45)c3)cc12 | % | 100
CNC(=O)c1cc(Oc2ccc(NC(=O)Nc3ccc(Cl)c(C(F)(F)F)c3)cc2)ccn1 | % | 30
C=CC(=O)Nc1ccc(CN(C(=O)Nc2c(Cl)c(OC)cc(OC)c2Cl)c2cc(Nc3ccc(N4CCN(C)CC4)cc3)ncn2)cc1 | % | 100
COc1cc(N2CCN(C)CC2)ccc1Nc1ncc2c(n1)N(C)c1ccccc1C(=O)N2C | % | 100

###

Form field: kinase still bound, per cent of control (one value per entry).
SYSTEM NAME: STK32C (human) (UniProt Q86UX6)
Sequence (Q86UX6 whole entry, looked up): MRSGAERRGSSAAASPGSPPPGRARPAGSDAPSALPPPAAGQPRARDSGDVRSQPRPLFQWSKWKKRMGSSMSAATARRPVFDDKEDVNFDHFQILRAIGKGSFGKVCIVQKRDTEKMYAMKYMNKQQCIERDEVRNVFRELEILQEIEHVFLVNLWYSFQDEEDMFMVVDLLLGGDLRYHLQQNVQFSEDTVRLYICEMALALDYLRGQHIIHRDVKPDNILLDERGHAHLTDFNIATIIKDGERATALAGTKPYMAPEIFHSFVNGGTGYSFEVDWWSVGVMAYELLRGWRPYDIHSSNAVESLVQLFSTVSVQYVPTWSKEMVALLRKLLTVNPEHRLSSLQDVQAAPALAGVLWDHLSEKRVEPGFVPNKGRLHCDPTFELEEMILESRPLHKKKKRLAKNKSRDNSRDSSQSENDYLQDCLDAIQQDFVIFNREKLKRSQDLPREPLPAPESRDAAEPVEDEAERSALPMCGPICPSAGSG
ASSAY NAME: KINOMEscan competition binding
STUDY CONDITIONS: compound 10.0 µM
MEASUREMENT NAME: kinase still bound, per cent of control (%)

CHEMICAL STRUCTURE | MEASUREMENT NAME | UNIT DESCRIPTOR | EXPERIMENTAL VALUE
Cc1n[nH]c2ccc(-c3cncc(OC[C@@H](N)Cc4c[nH]c5ccccc45)c3)cc12 | kinase still bound, per cent of control | % | 100
CCN(CC)CCCCNc1ncc2cc(-c3cc(OC)cc(OC)c3)c(NC(=O)NC(C)(C)C)nc2n1 | kinase still bound, per cent of control | % | 100
COc1cc2ncn(-c3cc(OCc4ccccc4C(F)(F)F)c(C(N)=O)s3)c2cc1OC | kinase still bound, per cent of control | % | 100
CN(C)C/C=C/C(=O)Nc1ccc(C(=O)Nc2cccc(Nc3nccc(-c4cccnc4)n3)c2)cc1 | kinase still bound, per cent of control | % | 100
COc1cc(C(=O)N2CCC(N3CCN(C)CC3)CC2)ccc1Nc1ncc2c(n1)N(C)c1ccccc1C(=O)N2C | kinase still bound, per cent of control | % | 100
C=CC(=O)Nc1cc(-n2c(=O)ccc3cnc4ccc(-c5cn[nH]c5)cc4c32)ccc1C | kinase still bound, per cent of control | % | 100
CCN(CC)CCCCNc1ncc2c(n1)N(C)C(=O)N(c1c(Cl)c(OC)cc(OC)c1Cl)C2 | kinase still bound, per cent of control | % | 100
O=c1cc(N2CCOCC2)oc2c(-c3cccc4c3sc3ccccc34)cccc12 | kinase still bound, per cent of control | % | 54
CNC(=O)c1ccc(Nc2cc(Nc3ccccc3S(=O)(=O)C(C)C)c3cc[nH]c3n2)nc1 | kinase still bound, per cent of control | % | 100
COc1cc2ncnc(-n3nc(-c4ccccn4)nc3N)c2cc1OC | kinase still bound, per cent of control | % | 44
N#CCNC(=O)c1ccc(-c2ccnc(Nc3ccc(N4CCOCC4)cc3)n2)cc1 | kinase still bound, per cent of control | % | 100
NC(=O)Nc1cc(-c2cccc(F)c2)sc1C(=O)N[C@@H]1CCCNC1 | kinase still bound, per cent of control | % | 53
COc1cc(N2CCN(C)CC2)ccc1Nc1ncc2c(n1)N(C)c1ccccc1C(=O)N2C | kinase still bound, per cent of control | % | 100
CS(=O)(=O)N1CCN(Cc2cc3nc(-c4cccc5[nH]ncc45)nc(N4CCOCC4)c3s2)CC1 | kinase still bound, per cent of control | % | 100
C=CC(=O)Nc1ccc(CN(C(=O)Nc2c(Cl)c(OC)cc(OC)c2Cl)c2cc(Nc3ccc(N4CCN(C)CC4)cc3)ncn2)cc1 | kinase still bound, per cent of control | % | 100
CCN1CCN(C(=O)Cc2ccc(Nc3ncc(F)c(Nc4ccc(C(=O)Nc5ccccc5Cl)cc4)n3)cc2)CC1 | kinase still bound, per cent of control | % | 77
O=C1NC(=O)/C(=C/c2ccc3nccc(-c4ccncc4)c3c2)S1 | kinase still bound, per cent of control | % | 96
COc1ccc(N(C(=O)Oc2c(C)cccc2C)c2ccnc(Nc3ccc(N4CCN(C)CC4)cc3)n2)c(OC)c1 | kinase still bound, per cent of control | % | 19
C[C@@H](Oc1cc(-c2cnn(C3CCNCC3)c2)cnc1N)c1c(Cl)ccc(F)c1Cl | kinase still bound, per cent of control | % | 100
CNC(=O)c1cc(Oc2ccc(NC(=O)Nc3ccc(Cl)c(C(F)(F)F)c3)cc2)ccn1 | kinase still bound, per cent of control | % | 100
O=C(Nc1cccc(Nc2ncc(Br)c(NCCc3cnc[nH]3)n2)c1)N1CCCC1 | kinase still bound, per cent of control | % | 100
COCC(=O)NC/C=C/c1ccc2ncnc(Nc3ccc(Oc4ccc(C)nc4)c(C)c3)c2c1 | kinase still bound, per cent of control | % | 86

###

SYSTEM NAME: UniProtKB Q9Y2K2
Sequence (Q9Y2K2 whole entry, looked up): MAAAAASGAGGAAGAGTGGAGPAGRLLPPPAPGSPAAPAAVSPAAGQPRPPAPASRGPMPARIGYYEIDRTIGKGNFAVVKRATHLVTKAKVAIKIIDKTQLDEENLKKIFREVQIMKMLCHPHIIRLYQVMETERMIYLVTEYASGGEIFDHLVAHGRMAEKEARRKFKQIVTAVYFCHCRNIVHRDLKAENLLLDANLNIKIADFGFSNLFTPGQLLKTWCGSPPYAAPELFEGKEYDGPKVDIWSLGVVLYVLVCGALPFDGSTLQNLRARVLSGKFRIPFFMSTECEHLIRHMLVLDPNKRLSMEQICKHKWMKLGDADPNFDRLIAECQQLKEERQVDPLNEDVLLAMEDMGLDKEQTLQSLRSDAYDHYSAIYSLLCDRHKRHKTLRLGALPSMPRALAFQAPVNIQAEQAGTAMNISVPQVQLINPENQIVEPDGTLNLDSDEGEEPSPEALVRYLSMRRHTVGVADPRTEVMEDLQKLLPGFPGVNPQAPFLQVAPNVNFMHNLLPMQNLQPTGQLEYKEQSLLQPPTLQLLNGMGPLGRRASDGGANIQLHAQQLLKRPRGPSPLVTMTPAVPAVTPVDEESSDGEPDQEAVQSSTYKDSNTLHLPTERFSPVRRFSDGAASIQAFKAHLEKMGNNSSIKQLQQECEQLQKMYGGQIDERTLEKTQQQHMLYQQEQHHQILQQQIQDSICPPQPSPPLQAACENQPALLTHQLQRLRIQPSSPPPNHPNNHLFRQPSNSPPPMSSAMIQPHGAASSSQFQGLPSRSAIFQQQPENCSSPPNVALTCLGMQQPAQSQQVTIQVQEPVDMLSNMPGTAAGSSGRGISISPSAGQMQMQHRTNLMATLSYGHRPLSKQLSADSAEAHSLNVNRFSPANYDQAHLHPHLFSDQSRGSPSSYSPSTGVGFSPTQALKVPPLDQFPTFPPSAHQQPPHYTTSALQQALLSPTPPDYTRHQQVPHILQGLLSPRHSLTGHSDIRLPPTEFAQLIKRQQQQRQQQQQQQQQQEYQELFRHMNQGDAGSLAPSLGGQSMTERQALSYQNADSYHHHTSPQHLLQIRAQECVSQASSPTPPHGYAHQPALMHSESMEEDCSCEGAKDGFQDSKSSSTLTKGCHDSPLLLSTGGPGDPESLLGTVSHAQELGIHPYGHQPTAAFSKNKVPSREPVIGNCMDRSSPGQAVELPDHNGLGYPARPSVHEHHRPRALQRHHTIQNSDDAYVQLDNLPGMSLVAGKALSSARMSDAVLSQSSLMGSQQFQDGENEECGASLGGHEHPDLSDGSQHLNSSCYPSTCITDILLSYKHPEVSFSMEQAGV
ASSAY NAME: KINOMEscan competition binding
STUDY CONDITIONS: compound 10.0 µM
Overview of recorded kinase still bound, per cent of control for various compounds

CHEMICAL STRUCTURE | kinase still bound, per cent of control (%)
NC(=O)Nc1cc(-c2cccc(F)c2)sc1C(=O)N[C@@H]1CCCNC1 | 6.2
C=CC(=O)Nc1cc(-n2c(=O)ccc3cnc4ccc(-c5cn[nH]c5)cc4c32)ccc1C | 78
COc1cc(N2CCN(C)CC2)ccc1Nc1ncc2c(n1)N(C)c1ccccc1C(=O)N2C | 100
CNC(=O)c1cc(Oc2ccc(NC(=O)Nc3ccc(Cl)c(C(F)(F)F)c3)cc2)ccn1 | 100
CCN(CC)CCCCNc1ncc2c(n1)N(C)C(=O)N(c1c(Cl)c(OC)cc(OC)c1Cl)C2 | 100
CN(C)C/C=C/C(=O)Nc1ccc(C(=O)Nc2cccc(Nc3nccc(-c4cccnc4)n3)c2)cc1 | 64
COc1cc2ncn(-c3cc(OCc4ccccc4C(F)(F)F)c(C(N)=O)s3)c2cc1OC | 76
COc1ccc(N(C(=O)Oc2c(C)cccc2C)c2ccnc(Nc3ccc(N4CCN(C)CC4)cc3)n2)c(OC)c1 | 22
CS(=O)(=O)N1CCN(Cc2cc3nc(-c4cccc5[nH]ncc45)nc(N4CCOCC4)c3s2)CC1 | 100
O=C1NC(=O)/C(=C/c2ccc3nccc(-c4ccncc4)c3c2)S1 | 93
O=c1cc(N2CCOCC2)oc2c(-c3cccc4c3sc3ccccc34)cccc12 | 92
CCN1CCN(C(=O)Cc2ccc(Nc3ncc(F)c(Nc4ccc(C(=O)Nc5ccccc5Cl)cc4)n3)cc2)CC1 | 68
COc1cc2ncnc(-n3nc(-c4ccccn4)nc3N)c2cc1OC | 83
COCC(=O)NC/C=C/c1ccc2ncnc(Nc3ccc(Oc4ccc(C)nc4)c(C)c3)c2c1 | 76
O=C(Nc1cccc(Nc2ncc(Br)c(NCCc3cnc[nH]3)n2)c1)N1CCCC1 | 7
COc1cc(C(=O)N2CCC(N3CCN(C)CC3)CC2)ccc1Nc1ncc2c(n1)N(C)c1ccccc1C(=O)N2C | 100
N#CCNC(=O)c1ccc(-c2ccnc(Nc3ccc(N4CCOCC4)cc3)n2)cc1 | 100

###

SYSTEM NAME: PRKACB (human)
ASSAY NAME: KINOMEscan competition binding
STUDY CONDITIONS: compound 10.0 µM
Recorded kinase still bound, per cent of control values for a group of compounds are listed next.

CHEMICAL STRUCTURE | UNIT DESCRIPTOR | kinase still bound, per cent of control
Cc1n[nH]c2ccc(-c3cncc(OC[C@@H](N)Cc4c[nH]c5ccccc45)c3)cc12 | % | 0.45
COc1cc(N2CCN(C)CC2)ccc1Nc1ncc2c(n1)N(C)c1ccccc1C(=O)N2C | % | 100
O=C(Nc1cccc(Nc2ncc(Br)c(NCCc3cnc[nH]3)n2)c1)N1CCCC1 | % | 1
CCN(CC)CCCCNc1ncc2c(n1)N(C)C(=O)N(c1c(Cl)c(OC)cc(OC)c1Cl)C2 | % | 100
CCN1CCN(C(=O)Cc2ccc(Nc3ncc(F)c(Nc4ccc(C(=O)Nc5ccccc5Cl)cc4)n3)cc2)CC1 | % | 76
O=c1cc(N2CCOCC2)oc2c(-c3cccc4c3sc3ccccc34)cccc12 | % | 92
C=CC(=O)Nc1cc(-n2c(=O)ccc3cnc4ccc(-c5cn[nH]c5)cc4c32)ccc1C | % | 100
C=CC(=O)Nc1ccc(CN(C(=O)Nc2c(Cl)c(OC)cc(OC)c2Cl)c2cc(Nc3ccc(N4CCN(C)CC4)cc3)ncn2)cc1 | % | 100
